tested on: HL-60; experiment: NCI tumour cell line growth inhibition, 48 h
Activity calls are given as the source filed them. Rule as the data show it: active = GI50 up to about 1.1 µM and inactive = higher. Peptide text beside a SMILES is read from it. * marks the point of attachment. Cbz = O=C(OCc1ccccc1)*; NHNH2 = NN*
parameter.measured: GI50

compound: CCOC(=O)c1csc(NC(=O)CCN2CCCC2)n1
result: > 100 µM (inactive)
--
compound: CN(C)c1ccc(/C=C(\NC(=O)c2ccccc2)c2nc3cncnc3[nH]2)cc1
result: > 100 µM (inactive)
--
compound: CCOC(=O)C(Cc1ccc(OC(=O)c2ccc(OC)cc2OC)cc1)NC(=O)C(F)(F)F (stereo not drawn)
result: 21.9 µM (inactive)
--
compound: COc1ccc2c(c1)CCCN1CCc3cc(OC)c(OC)cc3C21 (stereo not drawn)
result: 41.1 µM (inactive)
--
compound: CCOC(=O)C(NC(=O)c1ccc(/N=N/N(C)C)cc1)C(C)C (stereo not drawn)
result: > 100 µM (inactive)
--
compound: COC(=O)CC(NC(=O)OCc1ccccc1)C(=O)NC(CC(=O)OC)C(=O)NC(CC(=O)OC)C(=O)NC(CC(=O)OC)C(=O)NC(CC(=O)OC)C(=O)NC(CC(=O)OC)C(=O)NN (stereo not drawn) (Cbz-D(OMe)D(OMe)D(OMe)D(OMe)D(OMe)D(OMe)-NHNH2; configuration not given here)
result: > 100 µM (inactive)
--
compound: CC(=O)Nc1nc(Cl)cc(NCC2(CO)CCC2)n1
result: > 100 µM (inactive)
--
compound: CN1N=CSC12C(=O)N(c1ccc(Cl)cc1)C(=O)N2c1ccc(Cl)cc1 (stereo not drawn)
result: 2.13 µM (inactive)
